experiment: small-molecule microarray binders of probe aShh, primary screen, biochemical, biotinylated probe, 635/667 nm fluorescence (AID 1114); conditions: higher = more signal;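 note: probe is biotin-labelled aShh protein from a stem cell growth factor screen; measures binding of labelled protein to compounds printed on the slide; score merges feature fluorescence at 667 nm with signal-to-noise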
Categories are defined by ranges of composite z-score, namely category 1 (below -0.3), category 2 (-0.3 to below -0.09), category 3 (-0.09 or more)

{"compound": "CCOC(=O)[C@H]1[C@@H]2C(=O)N3CCC[C@H]3[C@H](O[Si](C(C)C)(C(C)C)C(C)C)[C@H]2C=C2CCN(S(=O)(=O)c3ccc(C)cc3)C[C@H]21", "discreteLabel": "category 3"}
{"compound": "O=C1O[C@H](c2ccccc2)[C@H](c2ccccc2)N2[C@H]1[C@@H](C(=O)NC[C@H](O)c1ccccc1)[C@]1(C(=O)Nc3ccc(C#CCCO)cc31)[C@H]2c1ccc(OCCO)cc1", "discreteLabel": "category 3"}
{"compound": "CCCCO[C@H]1C[C@H]2C(I)=C[C@@H]1C(=O)[C@]21CO1", "discreteLabel": "category 3"}
{"compound": "COC(=O)CCCCCCC(=O)Nc1ccc(NC(=O)CCCC[P+](c2ccccc2)(c2ccccc2)c2ccccc2)cc1", "discreteLabel": "category 2"}
{"compound": "CCCCCCc1nc(-c2cc(C)c(OC)c(C)c2)c(C)c2c1[Si](C(C)C)(C(C)C)OC2", "discreteLabel": "category 3"}
{"compound": "C=CC[C@]1(C(=O)NCCN2CCOCC2)N=C(c2ccc(OCCCO)cc2)O[C@H]1c1ccccc1CN=[N+]=[N-]", "discreteLabel": "category 2"}
{"compound": "C=C(/C(=C/C[C@H](OC(C)=O)c1cccc(OCCO)c1)c1cnc2ccccc2c1)C(C)C", "discreteLabel": "category 2"}
{"compound": "COc1cc2c(cc1O)C(C)N(Cc1ccc([N+](=O)[O-])o1)CC2 (stereo unspecified)", "discreteLabel": "category 2"}
{"compound": "CC(CO)N1C(=O)[C@@H]2[C@H]3C(=O)OCC=C[C@H]3OC23C=CCN(CCN2CCOCC2)C(=O)[C@@H]13 (stereo partly specified)", "discreteLabel": "category 1"}
{"compound": "O=C(CS)NCCCCCCNC(=O)[C@H]1C[C@H]2C(=O)N[C@@H](Cc3ccccc3)C(=O)N2[C@H]1c1ccc(O)cc1", "discreteLabel": "category 1"}

====

experiment: basal RPMI8226 viability, no added stimulus, profiling panel, cell-based, calcein-AM fluorescence, 48 h, PK04 Diversity Set (AID 1166); details: RPMI8226 myeloma viability, higher = more signal;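 note: cells grown under basal conditions without added stimulus; test concentration not given here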
Threshold-based label: z-score under -0.8 gives true, z-score not under -0.8 gives false.

{"compound": "COc1ccc(CCNC(=O)[C@@]2(Sc3ccc(C)cc3)CC(=O)N(C3Cc4ccccc4C3)[C@@H]2c2ccc(CO)cc2)cc1", "discreteLabel": "true"}
{"compound": "COCCOC(=O)N1C(=O)[C@@]2(c3cc(C#CC4=CCCCC4)ccc31)[C@H](c1ccc(O)cc1)N1[C@H](c3ccccc3)[C@H](c3ccccc3)OC(=O)[C@H]1[C@@H]2C(=O)N1CCN(c2ncccn2)CC1", "discreteLabel": "false"}
{"compound": "COc1ccc(-c2nc(-c3ccccc3)c3c(c2C)CO[Si]3(C(C)C)C(C)C)cn1", "discreteLabel": "true"}
{"compound": "CCCCCCc1nc(-c2cc(C)c(OC)c(C)c2)c(C)c2c1[Si](C(C)C)(C(C)C)OC2", "discreteLabel": "true"}
{"compound": "CCOC(=O)C[C@H]1[C@H](OC(=O)c2cc3ccccc3oc2=O)[C@@H](NC(=O)c2ccc(-c3ccccc3)cc2)c2cc(OCCCO)ccc2N1C(=O)c1ccccc1", "discreteLabel": "true"}
{"compound": "C=CCN1C(=O)[C@@]2(O[C@@H](CCn3cc([C@H](O)c4ccccc4)nn3)[C@H]([Si](C)(C)c3ccc(OC)cc3)[C@H]2C)c2cc(N3CCC3=O)ccc21", "discreteLabel": "true"}
{"compound": "CCCNC(=O)[C@@H]1c2ccccc2C(=O)N(C(C)C)[C@H]1c1ccc(CO)cc1", "discreteLabel": "false"}
{"compound": "CN(C)C(=O)[C@]1(CCS(=O)(=O)c2ccccc2)N=C(c2ccc(OCCCO)cc2)O[C@@H]1c1ccccc1N=[N+]=[N-]", "discreteLabel": "false"}
{"compound": "Cc1ccc(S[C@]2(C(=O)NCCCN(C)C)CC(=O)N(C3CCCCC3)[C@@H]2c2ccc(CO)cc2)cc1", "discreteLabel": "false"}
{"compound": "COC(=O)[C@@]1(Cc2ccccc2N=[N+]=[N-])N=C(c2ccc(OCCCO)cc2)O[C@H]1c1ccccc1N=[N+]=[N-]", "discreteLabel": "true"}
{"compound": "CCCC[C@@H]1C[C@H]1[C@@H](NC(=O)c1cccs1)c1ccc(C(F)(F)F)cc1", "discreteLabel": "true"}
{"compound": "[N-]=[N+]=NCc1ccccc1C[C@@]1(C(=O)N2CCOCC2)N=C(c2ccc(OCCCO)cc2)O[C@@H]1c1ccccc1", "discreteLabel": "true"}
{"compound": "CN(C)C(=O)C1N=C(c2ccc(OCCCO)cc2)N(c2ccccc2)O1 (stereo not given)", "discreteLabel": "false"}
{"compound": "C=CCOC(=O)[C@H]1[C@@H]2C(=O)O[C@@H](c3ccccc3)[C@@H](c3ccccc3)N2[C@@H](c2ccc(OCCOC(=O)[C@H]3C[C@H]4C(=O)N[C@@H](CC(C)C)C(=O)N4[C@H]3c3cccc(OCCO)c3)cc2)[C@]12C(=O)Nc1ccc(I)cc12", "discreteLabel": "false"}
{"compound": "C=CCOC(=O)[C@H]1[C@@H]2C(=O)O[C@@H](c3ccccc3)[C@@H](c3ccccc3)N2[C@@H](c2ccc(OCCOC(=O)[C@H]3C[C@H]4C(=O)N[C@@H](CCCCNC(C)=O)C(=O)N4[C@H]3c3ccc(O)cc3)cc2)[C@]12C(=O)Nc1ccccc12", "discreteLabel": "false"}
{"compound": "C=CCN1C(=O)[C@@]2(CCS(=O)(=O)c3ccccc3)N=C(c3ccc(OCCCO)cc3)O[C@H]2c2ccccc21", "discreteLabel": "true"}
{"compound": "CC=CC(O)C1C=CC2C(=O)N(c3ccccc3)C(=O)C2N1Nc1ccccc1F (stereo not given)", "discreteLabel": "true"}
{"compound": "O=C1O[C@H](c2ccccc2)[C@H](c2ccccc2)N2[C@H]1[C@@H](C(=O)O)[C@]1(C(=O)Nc3ccc(C#CC4=CCCCC4)cc31)[C@H]2c1ccc(O)cc1", "discreteLabel": "true"}
{"compound": "CN1C(=O)C2C=CC(C(O)COCc3ccccc3)N(N(c3ccccc3)c3ccccc3)C2C1=O (stereo not given)", "discreteLabel": "true"}

====

system: wheat germ agglutinin (Triticum aestivum), Alexa647-labelled; assay: wheat germ agglutinin binders on compound microarrays, profiling panel, artefact control for SMM control-protein annotation, biochemical, small-molecule microarray, 635/667 nm fluorescence (AID 1140); settings: WGA-A647 binding, 635 nm fluorescence, higher = more signal;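 note: score merges 667 nm feature emission with signal to noise over triplicate slides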
reportedEndpoint: composite z-score

{"sampleSmiles": "[N-]=[N+]=NCc1ccccc1C[C@@]1(C(=O)N2CCOCC2)N=C(c2ccc(OCCCO)cc2)O[C@@H]1c1ccccc1", "reportedEndpoint": "composite z-score", "observedResult": 0.529}
{"sampleSmiles": "COc1ccc(-c2nc(-c3ccccc3)c3c(c2C)CO[Si]3(C(C)C)C(C)C)cn1", "reportedEndpoint": "composite z-score", "observedResult": 0.0463}
{"sampleSmiles": "COc1ccc([Si](C)(C)[C@@H]2[C@@H](CC(=O)N(CCO)Cc3ccccc3)O[C@]3(C(=O)N(Cc4cccc(N5CCOC5=O)c4)c4ccccc43)[C@H]2C)cc1", "reportedEndpoint": "composite z-score", "observedResult": 0.717}

====

assay: S. cerevisiae growth modulation with rapamycin, primary screen, strain BY4716, OD600, 96 h (AID 1091); details: higher = more signal, called active from +8 up or from −8 down; note: test concentration not given here

{"molecule": "COC(=O)[C@@]1(Cc2ccc(OC)cc2)[C@H]2c3cc(C(=O)N4CCCC4)n(Cc4c(-c5ccccc5)noc4C)c3C[C@H]2CN1C(=O)c1ccccc1", "z-score": 1.77}
{"molecule": "COC(=O)[C@@]1(Cc2ccc(F)cc2)[C@H]2c3cc(C(=O)N4CCCC4)n(CCN4CNCC4=O)c3C[C@H]2CN1C(=O)c1ccccc1", "z-score": 0.316}
{"molecule": "COC1OC[C@]2(C)[C@H]3C4=C(CN2C(=O)OC(C)(C)C)[C@H](C)C(CO)C(CO)C4CC[C@@H]13 (stereo partly drawn)", "z-score": 0.867}

====

biological target: Calmodulin-1 (Homo sapiens) (UniProt P0DP23); test: CALM1 binders on microarrays, EGTA buffer, profiling panel, biochemical, small-molecule microarray, Cy5-labelled CALM1 (AID 1111); details: Cy5-CALM1 binding fluorescence, higher = more signal;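 note: labelled calmodulin applied in Tris saline Tween buffer holding calcium plus EGTA and DTT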
Response key: Y means composite z-score >= 0.2; N means composite z-score < 0.2.

{"compound": "CN1C(=O)C2C=CC(C(O)C#Cc3ccccc3)N(Nc3ccccc3)C2C1=O (stereo unspecified)", "discreteLabel": "Y"}
{"compound": "CCOC(=O)C[C@H]1[C@H](OC(=O)c2ccc(C(=O)c3ccccc3)cc2)[C@@H](NC(=O)Cc2ccc(OC)cc2)c2cc(OCCCO)ccc2N1C(=O)c1ccccc1", "discreteLabel": "N"}
{"compound": "CN(C)C(=O)[C@@]1(CCS(=O)(=O)c2ccccc2)N=C(c2ccc(OCCCO)cc2)O[C@H]1c1ccccc1", "discreteLabel": "Y"}
{"compound": "COc1ccc([Si](C)(C)[C@@H]2[C@@H](CC(=O)N(CCO)Cc3ccccc3)O[C@]3(C(=O)N(Cc4cccc(N5C(=O)c6cccc7cccc5c67)c4)c4ccccc43)[C@H]2C)cc1", "discreteLabel": "Y"}
{"compound": "Cc1ccccc1C(O)C1C=CC2C(=O)N(C)C(=O)C2N1N(c1ccccc1)c1ccccc1 (stereo unspecified)", "discreteLabel": "N"}
{"compound": "COCCCNC(=O)[C@@]1(Cc2ccccc2CN=[N+]=[N-])N=C(c2ccc(OCCCO)cc2)O[C@H]1c1ccccc1", "discreteLabel": "Y"}
